Parameter: log10 Ki. Scope: all listed entries.
targetDesc: mu opioid receptor (Rattus norvegicus, UniProt P33535)
Sequence (P33535 whole entry): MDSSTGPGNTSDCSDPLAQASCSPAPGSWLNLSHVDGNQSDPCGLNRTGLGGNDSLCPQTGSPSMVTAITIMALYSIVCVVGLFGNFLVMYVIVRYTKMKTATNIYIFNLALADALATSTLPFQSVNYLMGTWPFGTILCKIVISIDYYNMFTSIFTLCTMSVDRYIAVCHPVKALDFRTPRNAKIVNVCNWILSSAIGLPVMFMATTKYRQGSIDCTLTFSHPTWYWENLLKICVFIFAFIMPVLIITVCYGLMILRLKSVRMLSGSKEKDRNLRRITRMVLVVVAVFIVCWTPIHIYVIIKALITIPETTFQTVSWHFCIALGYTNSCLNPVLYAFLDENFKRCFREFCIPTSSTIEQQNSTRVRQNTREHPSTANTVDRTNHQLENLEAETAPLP
assayName: Rat brain mu opioid receptor binding assay ([3H]DAMGO)
assayContext: MOR Ki, Rat mu opioid receptor binding constant; rat forebrain membranes, ~0.8 nM [3H]DAMGO
Hi team, quick reminder: these entries are log10 of Ki (nM).

>>> val("Cn1nnc(-c2ccc3c(c2)Oc2ccccc2C3=C2CC3CCC(C2)N3)n1")
3.16

Ask: Give the reported log10 Ki for "COc1cccc2c1Oc1cc(-c3noc(=S)[nH]3)ccc1C2=C1CC2CCC(C1)N2" (system: mu opioid receptor (Rattus norvegicus, UniProt P33535)).
Result: 2.57

Ask: Now the same for "Cc1nnc(-c2ccc3c(c2)Oc2ccccc2C3=C2CC3CCC(C2)N3)[nH]1"
Result: 2.83

Ask: Now the same for "O=C(NC1CCCC1)c1ccc2c(c1)Oc1ccccc1C2=C1CC2CCC(C1)N2"
Result: 3.49

Ask: Now the same for "CC(C)CN(CC(C)C)C(=N)c1ccc2c(c1)Oc1ccccc1C2=C1CC2CCC(C1)N2"
Result: 3.49

Ask: Now the same for "O=C(NCC(F)(F)F)c1ccc2c(c1)Oc1ccccc1C2=C1CC2CCC(C1)N2"
Result: 2.61
